# assay.info: Pharmacokinetics in female BALB/c nude mice bearing A375 xenografts, 1 day dosing (PK and PD study): plasma, tumor and brain concentrations, AUC
# Assay type: in vivo
# details: mouse, plasma, po, 2 mg/kg, 2 mg/kg p.o. TID × 1 day; post 3rd dose; 36 h; read-out: Mean Concentration in Plasma ± SEM
measured.attribute: concentration at 36 h

[[record]]
compound = "CCN(C)S(=O)(=O)Nc1ccc(F)c(Oc2ccc3ncn([C@H]4COC5(CCN(C6CC7(C6)CN(c6cc8c(cc6F)c(N6CCC(=O)NC6=O)nn8C)C7)CC5)C4)c(=O)c3c2)c1C#N [Compound 26]"
measured_attribute = "concentration at 36 h"
experimental_result = "1.45 ng/mL"

